# experimental-system: UniProtKB P56817
# Sequence (P56817 46-501): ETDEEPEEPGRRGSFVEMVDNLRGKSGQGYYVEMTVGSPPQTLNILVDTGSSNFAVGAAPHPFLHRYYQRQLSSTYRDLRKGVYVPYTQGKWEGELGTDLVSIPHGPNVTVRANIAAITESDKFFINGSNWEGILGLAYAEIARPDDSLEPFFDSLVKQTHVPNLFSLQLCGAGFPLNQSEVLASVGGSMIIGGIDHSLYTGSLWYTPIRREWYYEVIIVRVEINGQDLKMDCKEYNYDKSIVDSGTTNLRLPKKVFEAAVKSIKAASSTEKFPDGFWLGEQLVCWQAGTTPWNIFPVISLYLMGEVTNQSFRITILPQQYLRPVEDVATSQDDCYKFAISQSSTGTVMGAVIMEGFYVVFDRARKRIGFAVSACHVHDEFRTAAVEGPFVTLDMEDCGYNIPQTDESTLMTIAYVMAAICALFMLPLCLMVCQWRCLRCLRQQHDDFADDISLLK
# experimental-details: BACE1 efficacy assay (FRET-based, commercial BACE1 kit)
# Format: biochemical
# condition-summary: 10 μM test compound
measured-parameter: inhibition at 10 µM (%)

compound	reading-unit	inhibition at 10 µM
[2H]C([2H])([2H])Oc1ccc(C(=O)Nc2ccc(F)c([C@@]3(C)N=C(N)[C@](C)(F)C[C@@H]3F)c2)nc1 [Compound 8]	%	100
Cn1ccnc1C(=O)Nc1ccc(F)c([C@@]2(C)N=C(N)[C@](C)(F)C[C@@H]2F)c1 [Compound 10]	%	115
[2H]C([2H])([2H])Oc1ccc(C(=O)Nc2cc(F)c(F)c([C@@]3(C)N=C(N)[C@@](C)(F)C[C@@H]3F)c2)nc1 [Compound 22]	%	101
COc1ccc(C(=O)Nc2ccc(F)c([C@@]3(C)N=C(N)[C@](C)(F)C[C@@H]3F)c2)nc1 [Compound 7]	%	102
COc1cnc(C(=O)Nc2ccc(F)c([C@@]3(C)N=C(N)[C@@](C)(F)C[C@@H]3F)c2)cn1 [Compound 2]	%	99
C[C@@]1(F)C[C@H](F)[C@@](C)(c2cc(NC(=O)c3ccc(Cl)cc3)ccc2F)N=C1N [Compound 16]	%	103
[2H]C([2H])([2H])Oc1ccc(C(=O)Nc2ccc(F)c([C@@]3(C)N=C(N)[C@@](C)(F)C[C@@H]3F)c2)nc1 [Compound 19]	%	106
